Assay: Cmax in beagle dog at 2 mg/kg, po
Format: ADME, organism-based, Canis lupus familiaris
Parameters: dose 2 mg/kg, route oral
Details: in vivo
measured-endpoint: Cmax (nM)
One number for each entry, in nM.

QUERY: What value of measured Cmax is listed for `N[C@H]1C[C@@H](N2Cc3cn[nH]c3C2)CO[C@@H]1c1cc(F)ccc1F` ?
RESULT: 1920

###

Experiment: Volume of distribution at steady state in rat at 1 mg/kg, iv and 2 mg/kg, po
Type: ADME, organism-based
Settings: in vivo, read-out: Vdss
measured-endpoint: Vd
Form field: result (number plus unit)

QUERY: # get_value(readout='Vd', item= `N[C@H]1C[C@@H](N2Cc3cn[nH]c3C2)CO[C@@H]1c1cc(F)ccc1F` )
RESULT: 4.9 L/kg
